Target: human CLDN18.2 (human)
Assay: cell-based or functional assay
recorded.endpoint: ADCC Maximum killing (%), PBMC effector cells, NUGC-4 target cells
Answer with a number only, understood to be in %.

{"binder": "humanized antibody hz28G3-1.1 (antibody, human IgG1, kappa, V domains shown) VH: QVQLVQSGAEVKKPGASVKVSCKTSGYSFTDYLMLWVRQAPGQGLEWMGNINPYYGRTTYALKFKGRVTMTVDRSTSTVYMELSSLRSEDTAVYYCARDGYSLRNAMDYWGQGTLVTVSS VL: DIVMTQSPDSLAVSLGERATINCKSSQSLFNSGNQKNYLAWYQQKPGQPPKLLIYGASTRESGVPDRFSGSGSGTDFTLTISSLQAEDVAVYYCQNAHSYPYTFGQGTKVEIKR", "readout.number": 4.9}

For the binder shown here, 15F9 (antibody, human IgG1, kappa, V domains shown) VH: QVQLVQSGSELKKPGASVKVSCKASGYTFTNYGINWVRQAPGQGLEWMGWINPNTGETTYAEEFKGRFVFSLDTSVSTAYLQISSLKAEDTAVYFCARLYYGNRFDSWGQGTLVTVSS VL: DIVMTQSPDSLAVSLGERATINCKSSQSLLNSGNQRNYLTWYQQKPGQPPKLLIYWASTRESGVPDRFSGSGSGTDFTLTISSLQAEDVAVYYCQNAYYYPLTFGGGTKVEIKR , give the reported ADCC Maximum killing (%), PBMC effector cells, NUGC-4 target cells.
4.34

Continue with chimeric antibody xi28G3 (antibody, human IgG1, kappa, V domains shown, Mouse variable regions on human IgG1/kappa; defucosylated, expressed in FUT8-knockout CHO-S cells; also called chimeric 28G3) VH: EIQLQQTGPELVKPGASVTISCKTSGYSFTDYLMLWVKQSHGKSLEWIGNINPYYGRTTYNLKFKGKATLTVDRSSSTAYMQLNSLTSEDSAVYYCARDGYSLRNAMDYWGQGTSVTVSS VL: DIVMTQSPYSLSVSTGEKVTMSCKSSQSLFNSGNQKNYLAWYQQKPGQPPKLLIYGASTRESGVPDRFTGSGSGTDFTLTISSVQAEDLALYYCQNAHSYPYTFGGGTKLEIKR
22.5

Hey, just so you know, these numbers are from patent US20240409629A1.
